Test system: MDA-MB-435 melanoma
Test: NCI-60 one-dose screen, 48 h
Details: 10 µM unless noted
Protocol: Growth inhibition of the MDA-MB-435 human Melanoma tumor cell line is measured as a screen for anti-cancer activity. Cells are grown in 96 well plates and exposed to the test compound for 48 hours. Compounds are tested at a single concentration, which is 10^-5 M for most compounds. The reported endpoint is percent growth (GI% or GIPRCNT), where numbers from 0 - 100% represent growth inhibition, and numbers from -100% - 0 represent cell death. […]
The panel holds about 83,000 compounds, 20% with a hit somewhere; the sample as a whole holds those more often. Activity calls are given as the source filed them. How the source made its calls: active means growth percent below 10; inactive means the rest.
Response enum: True = active, False = inactive

| molecule | class name |
| --- | --- |
| O=C(CSc1nnc(-c2ccc(Cl)cc2)n1-c1ccccc1)Nc1cccc(Cl)c1 | False |

[Q] Which outcome was entered for the molecule Nc1nc(Nc2ccccc2SSc2ccccc2Nc2nc(N)nc(-c3ccccc3)n2)nc(-c2ccccc2)n1 in this test?
[A] False

[Q] Which outcome was entered for the molecule CCc1cccc2c3c(sc12)C(c1ccc(Cl)cc1)C(C#N)=C(/N=C/c1ccc(Cl)cc1)O3 (stereo not given) in this test?
[A] True

[Q] Which outcome was entered for the molecule O=C(CCn1c[n+](CC(=O)c2ccc(F)cc2)c2ccccc21)Nc1cccc2cccnc12 in this test?
[A] False

[Q] Which outcome was entered for the molecule Cc1ccc(-n2cc(/C=N/NC(=O)c3nc(N)n[nH]3)c(-c3ccc(S(C)(=O)=O)cc3)n2)cc1 in this test?
[A] False

---

Test system: T-47D breast
Test: NCI-60 one-dose screen, 48 h (100 = growth as untreated, 0 = no growth, -100 = all killed)
Conditions: 10 µM unless noted
The panel holds about 83,000 compounds, 20% with a hit somewhere; the sample as a whole holds those more often.
measured metric: growth (%)
Form entry: value (%) — number only.

Past entries and their recorded results:
| compound | growth [%] |
| --- | --- |
| CNc1ncc2cc(-c3ccc(-c4ncccc4F)cc3Cl)c(=O)n(CC3OCC(N)CO3)c2n1 (stereo not drawn) | 72.5 |
| CC/C(=C/c1c(O)cccc1OC)c1ccc2c(OC)cccc2[o+]1 | 106 |

Considering NS(=O)(=O)c1ccc(-n2cc(-c3cccc(NC(=O)c4ccc(N5CCOCC5)c(C(F)(F)F)c4)c3)nn2)cc1 , its growth with T-47D breast was recorded as 4.61

Considering CC(=O)N(C)C1CCc2c(sc(NC(=O)c3ccc(C(C)(C)C)cc3)c2C(N)=O)C1 (stereo not drawn) , its growth with T-47D breast was recorded as 74

Considering N#Cc1cccc(CN2CCC3=C(C2)C(=O)N(Cc2ccc(Cl)cc2)C2=NCCN23)c1 , its growth with T-47D breast was recorded as 23.7

Considering O=C(NNc1nc2cc(F)c(F)cc2n2c(CN3CC4CNCC4C3)ccc12)c1cnccn1 (stereo not drawn) , its growth with T-47D breast was recorded as 20.8

Considering C[C@H](CCC(=O)NCc1ccc(C(=O)Nc2ccccc2N)cc1)[C@H]1CC[C@H]2[C@@H]3[C@@H](O)C[C@@H]4C[C@H](O)CC[C@]4(C)[C@H]3CC[C@]12C , its growth with T-47D breast was recorded as 48

Considering CCCCNNC(=O)c1ccc(-c2cccc(F)c2F)cc1 , its growth with T-47D breast was recorded as 3.16

Considering COc1cc2nc(Cl)nc(Nc3cccc(C4=Nc5c(N)nc(N)nc5NC(c5ccc(Br)cc5)C4)c3)c2cc1OC (stereo not drawn) , its growth with T-47D breast was recorded as 85.1

Considering Nc1ccccc1NC(=O)c1ccc(NC(=O)C/C=C/c2cccnc2)cn1 , its growth with T-47D breast was recorded as 8.26
